- testedOn: UniProt Q5ZSB6
- Sequence (Q5ZSB6 10-434 limits assumed): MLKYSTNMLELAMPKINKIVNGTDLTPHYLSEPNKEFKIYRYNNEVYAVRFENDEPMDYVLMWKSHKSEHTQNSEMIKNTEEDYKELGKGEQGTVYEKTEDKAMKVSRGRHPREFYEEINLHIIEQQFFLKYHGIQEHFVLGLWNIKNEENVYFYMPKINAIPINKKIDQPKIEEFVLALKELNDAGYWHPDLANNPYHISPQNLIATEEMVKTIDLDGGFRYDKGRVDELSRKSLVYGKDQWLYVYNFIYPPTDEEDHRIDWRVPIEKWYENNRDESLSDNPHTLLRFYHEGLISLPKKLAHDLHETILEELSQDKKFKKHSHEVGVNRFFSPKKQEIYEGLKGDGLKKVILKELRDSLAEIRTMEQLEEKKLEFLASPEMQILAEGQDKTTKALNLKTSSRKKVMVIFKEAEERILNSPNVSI
measuredAttribute: Kd

State Kd on UniProt Q5ZSB6. Entry: O=P(O)(O)O[C@H]1[C@H](OP(=O)(O)O)[C@@H](OP(=O)(O)O)[C@H](OP(=O)(O)O)[C@@H](OP(=O)(O)O)[C@H]1OP(=O)(O)O [inositol hexakisphosphate]
~315 µM
